# Experimental Target: Mitogen-activated protein kinase 14 (Homo sapiens, UniProt Q16539)
# Sequence (Q16539 whole entry): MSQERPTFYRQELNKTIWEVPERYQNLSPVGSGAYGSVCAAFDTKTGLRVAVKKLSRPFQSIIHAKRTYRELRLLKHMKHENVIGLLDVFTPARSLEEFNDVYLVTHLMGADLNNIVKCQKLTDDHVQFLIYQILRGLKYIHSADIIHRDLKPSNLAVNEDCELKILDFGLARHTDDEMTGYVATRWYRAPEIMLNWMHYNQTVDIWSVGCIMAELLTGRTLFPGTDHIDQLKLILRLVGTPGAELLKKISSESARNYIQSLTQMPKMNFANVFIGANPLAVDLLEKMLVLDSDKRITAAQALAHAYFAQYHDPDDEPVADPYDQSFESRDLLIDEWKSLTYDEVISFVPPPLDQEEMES
# Assay Method Text: Inhibition of MAPK14 (unknown origin) after 22 mins by homogeneous time-resolved fluorescence assay
pIC50: −log10 of the molar value.
Measurement Kind: pIC50

(Q) Return reported pIC50; argument: O=C(Cc1ccc(-c2ccccc2)cc1)Nc1cc(C2CCC2)[nH]n1
(A) < 5.00

----------
# Experimental Target: Mitogen-activated protein kinase kinase kinase 12 (Homo sapiens, UniProt Q12852)
# Sequence (Q12852 whole entry): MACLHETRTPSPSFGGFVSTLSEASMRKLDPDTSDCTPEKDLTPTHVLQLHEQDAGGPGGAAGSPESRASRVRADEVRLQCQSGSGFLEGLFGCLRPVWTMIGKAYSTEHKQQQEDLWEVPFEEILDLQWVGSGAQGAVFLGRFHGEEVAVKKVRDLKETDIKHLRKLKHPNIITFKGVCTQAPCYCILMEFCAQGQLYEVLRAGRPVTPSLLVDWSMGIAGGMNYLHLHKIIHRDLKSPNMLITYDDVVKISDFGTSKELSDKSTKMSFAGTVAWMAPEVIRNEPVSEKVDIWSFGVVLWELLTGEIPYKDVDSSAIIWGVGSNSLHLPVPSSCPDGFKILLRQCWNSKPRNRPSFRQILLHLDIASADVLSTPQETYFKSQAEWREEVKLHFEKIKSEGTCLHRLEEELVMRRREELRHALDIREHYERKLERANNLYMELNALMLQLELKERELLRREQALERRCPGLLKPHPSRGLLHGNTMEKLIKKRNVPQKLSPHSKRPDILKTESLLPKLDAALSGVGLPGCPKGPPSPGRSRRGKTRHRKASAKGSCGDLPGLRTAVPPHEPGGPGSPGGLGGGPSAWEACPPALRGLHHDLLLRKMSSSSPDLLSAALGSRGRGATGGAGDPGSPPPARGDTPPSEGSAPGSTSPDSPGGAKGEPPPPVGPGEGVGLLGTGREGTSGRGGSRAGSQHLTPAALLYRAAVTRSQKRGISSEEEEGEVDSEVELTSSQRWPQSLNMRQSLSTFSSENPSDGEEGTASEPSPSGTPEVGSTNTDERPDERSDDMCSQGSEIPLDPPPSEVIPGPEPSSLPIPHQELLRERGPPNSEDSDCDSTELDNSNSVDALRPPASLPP
# Assay Method Text: Inhibition of DLK (unknown origin)
pIC50: −log10 of the molar value.
Measurement Kind: pIC50

(Q) Return reported pIC50; argument: O=C(Cc1ccc(-c2ccccc2)cc1)Nc1cc(C2CCC2)[nH]n1
(A) < 5.00
